These entries and their values trace back to patent US20260116910A1.

- system: human FXR (NR1H4) (Homo sapiens, UniProt Q96RI1)
- Sequence (Q96RI1 1-476 isoform Q96RI1-1): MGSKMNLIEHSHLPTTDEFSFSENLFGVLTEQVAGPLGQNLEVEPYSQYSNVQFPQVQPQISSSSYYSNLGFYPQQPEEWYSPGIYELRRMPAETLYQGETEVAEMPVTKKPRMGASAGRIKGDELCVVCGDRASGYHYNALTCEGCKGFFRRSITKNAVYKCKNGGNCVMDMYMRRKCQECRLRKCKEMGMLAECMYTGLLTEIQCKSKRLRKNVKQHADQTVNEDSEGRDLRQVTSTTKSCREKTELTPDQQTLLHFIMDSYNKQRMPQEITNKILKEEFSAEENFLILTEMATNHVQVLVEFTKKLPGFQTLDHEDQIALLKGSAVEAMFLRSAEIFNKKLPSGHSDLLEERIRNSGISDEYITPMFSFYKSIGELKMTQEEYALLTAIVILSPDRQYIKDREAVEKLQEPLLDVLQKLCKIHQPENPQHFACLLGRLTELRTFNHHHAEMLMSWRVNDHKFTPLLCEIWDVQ
- assay method text: Human FXR (NR1H4) agonist assessment, FXRE-NanoLuc reporter in HEK293T cells
- Type: cell-based
- measurement parameters: FXR activation, HEK293T FXRE-NanoLuc reporter, 24 hr
recorded endpoint: Efficacy (maximum measured induction of NanoLuc, normalized to CDCA set as 100%)

Find the recorded Efficacy (maximum measured induction of NanoLuc, normalized to CDCA set as 100%) belonging to CC[C@H]1[C@@H](O)[C@@H]2[C@H](CC[C@]3(C)[C@@H]([C@H](C)CC(=O)O)CC[C@@H]23)[C@@]2(C)CCCC[C@@H]12 [compound 26] and report it. C (100%<efficacy <=300%)

How about C[C@]12CC[C@@H](O)C[C@H]1CC[C@@H]1[C@@H]2C[C@H](O)[C@]2(C)[C@@H](CCCCCC(=O)O)CC[C@@H]12 [RC-3] ? B (300%<efficacy <=400%)

How about CC[C@H]1[C@@H](O)[C@@H]2[C@H](CC[C@]3(C)[C@@H]([C@H](C)CCC(=O)NS(=O)(=O)C(C)(C)C)CC[C@@H]23)[C@@]2(C)CCCC[C@@H]12 [4-1] ? B (300%<efficacy <=400%)

How about CC[C@H]1[C@@H](O)[C@@H]2[C@H](CC[C@]3(C)[C@@H]([C@H](C)CCNS(=O)(=O)C[C@]45CC[C@H](CC4=O)C5(C)C)CC[C@@H]23)[C@@]2(C)CCCC[C@@H]12 [6-3] ? C (100%<efficacy <=300%)

* * *

Items are presented alongside their recorded EC50.
- system: human FXR (NR1H4) (Homo sapiens)
- Sequence (Q96RI1 1-476 isoform Q96RI1-1): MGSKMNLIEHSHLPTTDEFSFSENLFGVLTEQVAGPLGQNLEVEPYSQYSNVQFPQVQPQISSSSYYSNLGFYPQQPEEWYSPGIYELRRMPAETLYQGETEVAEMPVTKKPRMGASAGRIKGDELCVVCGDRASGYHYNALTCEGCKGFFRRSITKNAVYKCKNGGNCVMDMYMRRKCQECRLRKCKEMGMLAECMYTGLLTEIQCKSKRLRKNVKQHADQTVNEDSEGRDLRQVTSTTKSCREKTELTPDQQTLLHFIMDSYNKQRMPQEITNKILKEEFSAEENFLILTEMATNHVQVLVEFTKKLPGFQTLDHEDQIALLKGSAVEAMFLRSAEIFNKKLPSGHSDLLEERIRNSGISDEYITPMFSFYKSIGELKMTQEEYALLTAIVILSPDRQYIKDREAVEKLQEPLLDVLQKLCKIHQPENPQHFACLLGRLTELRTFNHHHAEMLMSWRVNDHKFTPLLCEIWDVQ
- assay method text: Human FXR (NR1H4) agonist assessment, FXRE-NanoLuc reporter in HEK293T cells
- Assay type: cell-based
- measurement parameters: FXR activation, HEK293T FXRE-NanoLuc reporter, 24 hr; read-out: EC50

Worked examples, 6 molecules total:
Find the recorded EC50 belonging to CC[C@H]1[C@@H](O)[C@@H]2[C@H](CC[C@]3(C)[C@@H]([C@H](C)CCNC(=O)NS(=O)(=O)c4ccc(C(C)(C)C(N)=O)cc4)CC[C@@H]23)[C@@]2(C)CCCC[C@@H]12 and report it. < 1000 nM

How about CC[C@H]1[C@@H](O)[C@@H]2[C@H](CC[C@]3(C)[C@@H]([C@H](C)CCNC(=O)NS(=O)(=O)N4CCCC4)CC[C@@H]23)[C@@]2(C)CCCC[C@@H]12 ? 1000 to 10000 nM

How about CC[C@H]1[C@@H](O)[C@@H]2[C@H](CC[C@]3(C)[C@@H]([C@H](C)CCNC(=N)NS(=O)(=O)c4cccs4)CC[C@@H]23)[C@@]2(C)CCCC[C@@H]12 ? < 1000 nM

How about CC(O)CC[C@@H](C)[C@H]1CC[C@H]2[C@@H]3CC[C@@H]4CCCC[C@]4(C)[C@H]3CC[C@]12C (stereo partly drawn) ? > 10000 nM

How about CC[C@H]1[C@@H](O)[C@@H]2[C@H](CC[C@]3(C)[C@@H]([C@H](C)CCNC(=O)C(=O)NS(=O)(=O)c4ccc(C(C)(C)CF)cc4)CC[C@@H]23)[C@@]2(C)CCCC[C@@H]12 ? < 1000 nM

How about C[C@H](CCNC(=O)NS(=O)(=O)c1ccc(C(C)(C)CF)cc1)[C@H]1CC[C@H]2[C@@H]3CC[C@@H]4CCCC[C@]4(C)[C@H]3CC[C@]12C ? 1000 to 10000 nM

Turning now to a further molecule:
Find the recorded EC50 belonging to C[C@H](CCCCC(=O)O)[C@H]1CC[C@H]2[C@@H]3CC[C@@H]4C[C@H](O)CC[C@]4(C)[C@H]3CC[C@]12C and report it. 1000 to 10000 nM
